- targetDesc: Polyunsaturated fatty acid 5-lipoxygenase (Homo sapiens)
- Sequence (whole entry): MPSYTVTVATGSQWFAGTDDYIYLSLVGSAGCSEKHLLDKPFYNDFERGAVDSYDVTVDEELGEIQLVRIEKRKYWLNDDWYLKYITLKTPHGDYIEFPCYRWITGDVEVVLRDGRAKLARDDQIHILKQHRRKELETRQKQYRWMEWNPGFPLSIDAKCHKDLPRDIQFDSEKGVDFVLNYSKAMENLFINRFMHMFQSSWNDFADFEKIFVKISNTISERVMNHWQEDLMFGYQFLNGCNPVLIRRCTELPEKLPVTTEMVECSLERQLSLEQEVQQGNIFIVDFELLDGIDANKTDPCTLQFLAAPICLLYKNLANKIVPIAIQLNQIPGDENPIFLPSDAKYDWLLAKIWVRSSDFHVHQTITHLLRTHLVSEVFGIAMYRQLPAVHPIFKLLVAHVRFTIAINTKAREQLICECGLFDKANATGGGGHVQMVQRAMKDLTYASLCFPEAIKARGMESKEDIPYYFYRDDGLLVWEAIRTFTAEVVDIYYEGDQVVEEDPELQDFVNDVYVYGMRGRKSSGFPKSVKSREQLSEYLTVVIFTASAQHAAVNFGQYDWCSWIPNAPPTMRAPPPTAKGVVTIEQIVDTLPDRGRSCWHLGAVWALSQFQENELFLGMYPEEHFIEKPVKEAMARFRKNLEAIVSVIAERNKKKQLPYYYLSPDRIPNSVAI
- experimentalProtocol: Inhibition of 5-LOX in A-23187-stimulated […] at 10 uM
Listed here are molecules together with their documented inhibition.
measuredMetric: inhibition (%)

molecule=CCOC(=O)c1c(N2CCCC2)[nH]c2ccc(O)cc12 targetdesc="Polyunsaturated fatty acid 5-lipoxygenase (Homo sapiens)" measuredmetric=inhibition readingunit=% reportedresult=0
molecule="CCOC(=O)c1c(NC(C)c2ccccc2)[nH]c2ccc(O)cc12 (stereo not drawn)" targetdesc="Polyunsaturated fatty acid 5-lipoxygenase (Homo sapiens)" measuredmetric=inhibition readingunit=% reportedresult=94
molecule="CCOC(=O)c1c(NC(C)c2ccccc2)[nH]c2ccccc12 (stereo not drawn)" targetdesc="Polyunsaturated fatty acid 5-lipoxygenase (Homo sapiens)" measuredmetric=inhibition readingunit=% reportedresult=53
molecule=CCOC(=O)c1c(N2CCOCC2)[nH]c2ccc(O)cc12 targetdesc="Polyunsaturated fatty acid 5-lipoxygenase (Homo sapiens)" measuredmetric=inhibition readingunit=% reportedresult=0
molecule=CCOC(=O)c1c(N2CCN(c3ccccc3)CC2)n(C)c2ccc(OC)cc12 targetdesc="Polyunsaturated fatty acid 5-lipoxygenase (Homo sapiens)" measuredmetric=inhibition readingunit=% reportedresult=14
molecule=CCOC(=O)c1c(N2CCN(C)CC2)[nH]c2ccc(O)cc12 targetdesc="Polyunsaturated fatty acid 5-lipoxygenase (Homo sapiens)" measuredmetric=inhibition readingunit=% reportedresult=0
molecule="CC(Nc1[nH]c2ccc(O)cc2c1C#N)c1ccccc1 (stereo not drawn)" targetdesc="Polyunsaturated fatty acid 5-lipoxygenase (Homo sapiens)" measuredmetric=inhibition readingunit=% reportedresult=85
molecule="COC(=O)c1c(NC(C)c2ccccc2)[nH]c2ccc(O)cc12 (racemic)" targetdesc="Polyunsaturated fatty acid 5-lipoxygenase (Homo sapiens)" measuredmetric=inhibition readingunit=% reportedresult=77
molecule=CCOC(=O)c1c(N2CCN(c3ccccc3)CC2)[nH]c2ccc(O)cc12 targetdesc="Polyunsaturated fatty acid 5-lipoxygenase (Homo sapiens)" measuredmetric=inhibition readingunit=% reportedresult=22
molecule=CCOC(=O)c1c(N2CCN(c3ccc(F)cc3)CC2)[nH]c2ccc(O)cc12 targetdesc="Polyunsaturated fatty acid 5-lipoxygenase (Homo sapiens)" measuredmetric=inhibition readingunit=% reportedresult=22
molecule=N#Cc1c(N)[nH]c2ccc(O)cc12 targetdesc="Polyunsaturated fatty acid 5-lipoxygenase (Homo sapiens)" measuredmetric=inhibition readingunit=% reportedresult=0
molecule=CCOC(=O)c1c(N2CCN(c3ccc(Cl)cc3)CC2)[nH]c2ccc(O)cc12 targetdesc="Polyunsaturated fatty acid 5-lipoxygenase (Homo sapiens)" measuredmetric=inhibition readingunit=% reportedresult=84
molecule=CCOC(=O)c1c(Nc2ccccc2)[nH]c2ccc(O)cc12 targetdesc="Polyunsaturated fatty acid 5-lipoxygenase (Homo sapiens)" measuredmetric=inhibition readingunit=% reportedresult=65
molecule=CCOC(=O)c1c(Nc2ccc(C)cc2)[nH]c2ccc(O)cc12 targetdesc="Polyunsaturated fatty acid 5-lipoxygenase (Homo sapiens)" measuredmetric=inhibition readingunit=% reportedresult=76
molecule=CC(=O)c1c(N)[nH]c2ccc(O)cc12 targetdesc="Polyunsaturated fatty acid 5-lipoxygenase (Homo sapiens)" measuredmetric=inhibition readingunit=% reportedresult=0
molecule=C=CCN(CC=C)c1[nH]c2ccc(O)cc2c1C(=O)OCC targetdesc="Polyunsaturated fatty acid 5-lipoxygenase (Homo sapiens)" measuredmetric=inhibition readingunit=% reportedresult=71
molecule=CCOC(=O)c1c(N2CCN(Cc3ccccc3)CC2)[nH]c2ccc(O)cc12 targetdesc="Polyunsaturated fatty acid 5-lipoxygenase (Homo sapiens)" measuredmetric=inhibition readingunit=% reportedresult=15
molecule=CC(=O)N(O)C/C=C/c1cccc(Oc2ccccc2)c1 targetdesc="Polyunsaturated fatty acid 5-lipoxygenase (Homo sapiens)" measuredmetric=inhibition readingunit=% reportedresult=93
molecule=CCOC(=O)c1c(Nc2cccnc2)[nH]c2ccc(O)cc12 targetdesc="Polyunsaturated fatty acid 5-lipoxygenase (Homo sapiens)" measuredmetric=inhibition readingunit=% reportedresult=19
molecule="COC(=O)c1c(NC(C)c2ccccc2)[nH]c2ccccc12 (stereo not drawn)" targetdesc="Polyunsaturated fatty acid 5-lipoxygenase (Homo sapiens)" measuredmetric=inhibition readingunit=% reportedresult=48
molecule=CCOC(=O)c1c(N(C)C)[nH]c2ccc(O)cc12 targetdesc="Polyunsaturated fatty acid 5-lipoxygenase (Homo sapiens)" measuredmetric=inhibition readingunit=% reportedresult=0
molecule=CCOC(=O)c1c(N2CCCCC2)[nH]c2ccc(O)cc12 targetdesc="Polyunsaturated fatty acid 5-lipoxygenase (Homo sapiens)" measuredmetric=inhibition readingunit=% reportedresult=0
molecule=Nc1[nH]c2ccc(O)cc2c1C(=O)c1ccccc1 targetdesc="Polyunsaturated fatty acid 5-lipoxygenase (Homo sapiens)" measuredmetric=inhibition readingunit=% reportedresult=0
